System under test: AsCas12a (Acidaminococcus sp.?) (UniProt U2UMQ6)
Test details: BLI
Recorded conditions: ΨDNA guide binding without target; NEB 2.1, 0.05% Triton X
Measurement kind: Kd (nM)
Express your answer in nM, writing the number without its unit.

Incoming: Entry under review: AGCACCCAGTCCGCCCTGAGTAGATGTGAATCATCTTTAAT [AsCas12a GFP ΨDNA 3'-biotin] . Reported Kd?
Outgoing: 24.5
